Test system: TNF
test_details: PBMC assay: TNF cytokine levels after LPS stimulation
Assay type: cell-based
particulars: human PBMCs, 30 min preincubation, 100 ng/ml LPS for 6 hrs, supernatant, MSD technology
measured_property: EC50

Example compounds with recorded EC50:
{"compound": "CN(C)c1nn(CC(=O)Nc2ccc3nncn3n2)c(=O)c2ccc(C(C)(F)F)nc12 [Compound 25]", "recorded_value": "> 20 µM"}
{"compound": "CN(C)c1nn(CC(=O)Nc2ccc3nncn3n2)c(=O)c2ccc(C(F)(F)F)nc12 [Compound 22]", "recorded_value": "5.86 µM"}

Entry CN(C)c1nn(CC(=O)Nc2ccc3nncn3n2)c(=O)c2ccc(C(F)(F)F)nc12 [Compound 23] ; EC50 = > 20 µM
